Hi there, I'd appreciate the recorded MIC for every entry that follows.
- Tested on: Mycobacterium tuberculosis
- experimental_protocol: microbe, parasite or virus in culture
- settings: H37Rv, 96 h
Numbers only, in µM.

The examples below pair each entry with its known result.
Cc1ccc(-c2cnnc(N3CCC(c4cccc(O)c4)C3)n2)o1 (configuration not stated); 60.3
Clc1cccc(C2CCN(c3nncc(-c4ccc(Br)cc4)n3)C2)c1 (configuration not stated); 30.7
Nc1ccc(-c2cnnc(N3CCC(c4cccc(Cl)c4)C3)n2)cc1 (configuration not stated); 5.7
Cc1ccc(-c2cnnc(N3CCC(c4cccc(N)c4)C3)n2)o1 (configuration not stated); 70.1
Cc1ccc(-c2cnnc(N3CCC(c4cccc(C(F)(F)F)c4)C3)n2)o1 (configuration not stated); 52.4

Report MIC for each item below.
1. NNC(=O)c1ccncc1
2. Cc1ccc(-c2cnnc(N3CCC(c4cccc(C#N)c4)C3)n2)o1 (configuration not stated)
3. Cc1ccc(-c2cnnc(N3CCC(c4cccc(Cl)c4)C3)n2)o1 (configuration not stated)
4. CO[C@H]1/C=C/O[C@@]2(C)Oc3c(C)c(O)c4c(O)c(c(/C=N/N5CCN(C)CC5)c(O)c4c3C2=O)NC(=O)/C(C)=C\C=C\[C@H](C)[C@H](O)[C@@H](C)[C@@H](O)[C@@H](C)[C@H](OC(C)=O)[C@@H]1C

1: 0.45; 2: 64.4; 3: 61; 4: 0.08

###

- measured_target: Inorganic pyrophosphatase (Mycobacterium tuberculosis (strain ATCC 25618 / H37Rv)) (UniProt P9WI55)
- Sequence (P9WI55 whole entry): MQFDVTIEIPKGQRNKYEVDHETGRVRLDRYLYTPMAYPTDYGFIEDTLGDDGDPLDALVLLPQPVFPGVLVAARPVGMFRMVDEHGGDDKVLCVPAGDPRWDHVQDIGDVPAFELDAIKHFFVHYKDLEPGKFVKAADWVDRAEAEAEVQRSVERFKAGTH
- experimental_protocol: Inhibition of Mycobacterium tuberculosis PPase at 100 uM using inorganic pyrophosphate as substrate preincubated for 2 mins followed by substrate addition measured after 6 mins by malachite green assay
Activity calls are given as the source filed them. No cut-off for these calls is given here.
measurement_kind: inhibition

The examples below pair each entry with its known result.
Cc1ccc(-c2cnnc(N3CCC(c4ccccc4)C3)n2)o1 (stereo unspecified); 19.7%
COc1ccc(C2CCN(c3nncc(-c4ccc(C)o4)n3)C2)cc1O (stereo unspecified); 5%
Cc1ccc(-c2cnnc(N3CCC(c4cccc(C#N)c4)C3)n2)o1 (stereo unspecified); 10.3%
Cc1ccc(-c2cnnc(N3CCC(c4cccc(N)c4)C3)n2)o1 (stereo unspecified); 33.4%
O=[N+]([O-])c1ccc(-c2cnnc(N3CCC(c4cccc(Cl)c4)C3)n2)cc1 (stereo unspecified); 30.3%

Report inhibition for each item below.
1. Cc1ccc(-c2cnnc(N3CCC(c4cccc(Cl)c4)C3)n2)o1 (stereo unspecified)
2. Cc1ccc(-c2cnnc(N3CCC(c4ccc(O)c(O)c4)C3)n2)o1 (stereo unspecified)
3. Cc1ccc(-c2cnnc(N3CCC(c4cccc(F)c4)C3)n2)o1 (stereo unspecified)
4. Cc1ccc(-c2cnnc(N3CCC(c4cccc(O)c4)C3)n2)o1 (stereo unspecified)
5. Cc1ccc(-c2cnnc(N3CCC(c4cccc(OCc5ccccc5)c4)C3)n2)o1 (stereo unspecified)
6. Clc1cccc(C2CCN(c3nncc(-c4ccc(Br)cc4)n3)C2)c1 (stereo unspecified)

45.6%
inactive
21.3%
inactive
73.2%
53%

Report inhibition for each item below.
1. Cc1ccc(-c2cnnc(N3CCC(c4cccc(C(F)(F)F)c4)C3)n2)o1 (stereo unspecified)
2. Cc1ccc(-c2cnnc(N3CCC(n4cnc5c(N)ncnc54)C3)n2)o1 (stereo unspecified)
3. FC(F)(F)c1ccccc1-c1ccc(-c2cnnc(N3CCC(c4cccc(Cl)c4)C3)n2)o1 (stereo unspecified)

1. 37.8%
2. inactive
3. 67.7%

Report inhibition for each item below.
1. O=[N+]([O-])c1cccc(-c2cnnc(N3CCC(c4cccc(Cl)c4)C3)n2)c1 (stereo unspecified)
2. O=[N+]([O-])c1cccc(-c2ccc(-c3cnnc(N4CCC(c5cccc(Cl)c5)C4)n3)cc2)c1 (stereo unspecified)

1. 39.4%
2. inactive
